Source of measurements: PubChem BioAssay AID2551

- Study target: Nuclear receptor ROR-gamma (Mus musculus) (UniProt P51450)
- Sequence (P51450 whole entry, looked up): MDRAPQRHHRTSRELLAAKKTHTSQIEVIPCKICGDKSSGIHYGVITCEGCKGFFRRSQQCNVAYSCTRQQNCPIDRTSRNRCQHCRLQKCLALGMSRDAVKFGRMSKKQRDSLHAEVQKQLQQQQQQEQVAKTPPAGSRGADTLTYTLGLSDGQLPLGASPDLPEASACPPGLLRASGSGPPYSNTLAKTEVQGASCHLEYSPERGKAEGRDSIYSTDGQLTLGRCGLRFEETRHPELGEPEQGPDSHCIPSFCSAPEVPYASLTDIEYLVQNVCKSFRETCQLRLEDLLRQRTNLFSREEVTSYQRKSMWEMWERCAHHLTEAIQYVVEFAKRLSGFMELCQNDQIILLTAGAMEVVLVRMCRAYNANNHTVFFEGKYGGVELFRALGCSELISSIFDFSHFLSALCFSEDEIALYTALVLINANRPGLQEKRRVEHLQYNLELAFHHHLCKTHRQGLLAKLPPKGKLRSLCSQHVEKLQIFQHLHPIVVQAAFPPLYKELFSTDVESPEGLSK
- Test protocol: qHTS for inhibitors of ROR gamma transcriptional activity; also: nearly all actives have a fitted effect of over 60% in size
- Assay setup: Drosophila S2 Gal4-RORgamma UAS-luciferase reporter, 20 h; series mostly up to 53.6 µM
Out of some 310,000 compounds screened, about 17,000 (5.5%) were called active. About 11% were inconclusive and are not listed. Calls follow the shape of the dose curve; as a rule, active = well fitted inhibition curve with a large enough effect; inconclusive = small, poorly fitted or top-dose-only effect, or effect the other way; inactive = no such curve, though single readings can be large or run the other way. The sample as a whole holds a higher share of actives than the screen did.
Classes used: TRUE = active, FALSE = inactive

Compound | Qualitative label
CCOc1ccccc1/C=N/Nc1nc2ccccc2o1 | TRUE
O=S(=O)(c1ccc(Br)cc1)N1CCC(c2nc3ccccc3[nH]2)CC1 | FALSE
Cc1nc2ccccc2c(C)c1C(=O)c1ccc(F)cc1 | FALSE
Cc1onc(-c2ccccc2)c1C(=O)NNC(=S)NC(=O)c1ccc(F)cc1 | TRUE
Cc1ccccc1N/C(SCc1ccc(Cl)cc1)=C(/C#N)C(N)=O | FALSE
CC(CC(=O)O)CC(=O)NNC(=O)c1cccc(Br)c1 (stereo unspecified) | FALSE
CC(C)C[C@H](NC(=O)N1CC(=O)Nc2ccccc21)C(=O)N[C@H](Cc1ccccc1)C(=O)O | FALSE
O=C(c1cnc(Cl)c(Cl)c1)N1CCN(S(=O)(=O)c2ccc(F)cc2)CC1 | FALSE
C/C(=N\NC(=S)NCc1ccccc1)C1CCCCC1 | TRUE
CCOC(=O)N1CCN(C(=S)Nc2ccc(C)cc2C)CC1 | FALSE
CC(C)c1ccc2c([Si](C)(C)C)c3c(nc2c1)-c1cccc(=O)n1C3 | FALSE
O=C(N/N=C/c1ccccn1)c1ccc(S(=O)(=O)N2CCCCCC2)cc1 | FALSE
O=C(NCCO)C(=O)NCC(c1ccc2c(c1)OCO2)N1CCN(c2ccc(F)cc2)CC1 (stereo unspecified) | FALSE
NS(=O)(=O)c1ccc(NC(=S)NC(=O)c2cccnc2)cc1 | FALSE
O=C(CCn1c(=S)[nH]c2cc3c(cc2c1=O)OCO3)NCc1ccc(Cl)cc1 | FALSE
Cn1cc([N+](=O)[O-])c(C(=O)Nc2cnn(Cc3ccc(F)cc3)c2)n1 | FALSE
CC1CCCCN1C(=S)NCc1ccccc1 (stereo unspecified) | FALSE
Cc1ccccc1NC(=S)NC(=O)Cc1ccc(Cl)cc1 | TRUE
O=C(Nc1cc2ccccc2oc1=O)C1CCCCC1 | FALSE
CN(C)CCn1c(=S)[nH]c2ccc(Cl)cc2c1=O | TRUE
O=C(CCCN1CCc2[nH]c3ccc(F)cc3c2C1)c1ccc(F)cc1 | FALSE
CC1(C)Cc2ccccc2-c2[nH]c(=S)[nH]c(=O)c21 | TRUE
O=C(Nc1ccn(Cc2ccccc2)n1)c1n[nH]c([N+](=O)[O-])c1Cl | TRUE
O=C(CSc1nc2ccccc2o1)N/N=C/c1ccccc1C(=O)O | FALSE
C/C(=N/NC(=O)c1ccncc1)c1ccc2c(c1)OCO2 | FALSE
CCCCn1c(=S)[nH]c2ncccc2c1=O | TRUE
C/C(=N\NC(=O)C(N)=O)c1ccc2c(c1)OCCO2 | FALSE
Cc1nc(-c2ccc(Cl)cc2)sc1C(=O)NN | FALSE
C/C(=N\NC(=S)NCc1ccccc1)c1ccc(Cl)cc1 | TRUE
O=C(NCCCN1CCOCC1)c1cc(-c2ccccc2F)no1 | FALSE
Cc1cccc(NC(=S)NCCc2ccc(Cl)cc2)c1C | TRUE
C[n+]1ccc(C(=O)NCc2ccccc2)cc1 | FALSE
Cc1ccccc1N(C(=O)CNC(=O)c1cccs1)C(C(=O)NC1CCCC1)c1ccncc1 (stereo unspecified) | FALSE
O=C(O)c1ccc(/C=N/NC(=S)NCc2ccccc2)cc1 | FALSE
Brc1ccccc1/C=N/Nc1nc2ccccc2o1 | TRUE
Cc1cccc(COc2ccccc2/C=N/Nc2ccc([N+](=O)[O-])cc2)c1 | FALSE
COc1ccc(/C=N/Nc2nc3ccccc3o2)cc1OC | FALSE
Oc1c(Br)cccc1/C=N/Nc1c(F)c(F)c(F)c(F)c1F | FALSE
Cc1nc(-c2ccccc2)sc1C(=O)/C=C/N(C)C | FALSE
CCc1cccc(NC(=O)CCCN2C(=O)C(c3ccccc3)Oc3cccnc32)c1 (stereo unspecified) | FALSE
COc1ccc(C(=O)NC(=S)NNC(=O)c2c(-c3ccccc3)noc2C)cc1 | TRUE
N#CC1=C(N)Oc2[nH]c(=S)[nH]c(=O)c2C12C(=O)Nc1ccccc12 (stereo unspecified) | FALSE
Cc1onc(-c2c(Cl)cccc2Cl)c1C(=O)NNC(=O)c1c(-c2c(Cl)cccc2Cl)noc1C | FALSE
O=C(Nc1ccn(Cc2ccccc2)n1)c1cccc(F)c1 | FALSE
Cc1cccc(NC(=S)N2CCC(O)CC2)c1C | FALSE
CCCCc1nc2c(=O)[nH]c3ccccc3c2o1 | FALSE

----------
- Study target: Nuclear receptor ROR-gamma (Mus musculus)
- Test protocol: qHTS for inhibitors of ROR gamma transcriptional activity; also: nearly all actives have a fitted effect of over 60% in size
- Assay setup: Drosophila S2 Gal4-RORgamma UAS-luciferase reporter, 20 h; series mostly up to 53.6 µM
Screen size: about 310,000 compounds; about 17,000 (5.5%) were called active. Not shown: some 11% with an inconclusive outcome. Calls come from the whole dose curve; as a rule, active = well fitted inhibition curve with a large enough effect; inconclusive = small, poorly fitted or top-dose-only effect, or effect the other way; inactive = no such curve, though single readings can be large or run the other way. Only a selection was taken, and actives are over-represented in it overall.
Classes used: active, inactive

Compound | Study target | Qualitative label
COc1ccc(C(C(=O)NCC2CCCO2)N(C(=O)Cn2nnc3ccccc32)c2ccc(NC(C)=O)cc2)cc1OC (stereo not given) | Nuclear receptor ROR-gamma (Mus musculus) | inactive
O=C(COc1ccc(Cl)cc1Cl)N/N=C/c1ccccn1 | Nuclear receptor ROR-gamma (Mus musculus) | active
O=C(N/N=C/c1ccccn1)c1cccc(NC(=O)c2ccc(Cl)cc2)c1 | Nuclear receptor ROR-gamma (Mus musculus) | inactive
O=C(N/N=C/c1ccc([N+](=O)[O-])cc1)c1c[nH]c2ccccc12 | Nuclear receptor ROR-gamma (Mus musculus) | inactive
Cc1ccc(S(=O)(=O)NCC2CCC(C(=O)N3CCOCC3)CC2)cc1 (stereo not given) | Nuclear receptor ROR-gamma (Mus musculus) | inactive

----------
- Study target: Nuclear receptor ROR-gamma (Mus musculus) (UniProt P51450)
- Test protocol: qHTS for inhibitors of ROR gamma transcriptional activity; also: nearly all actives have a fitted effect of over 60% in size
- Assay setup: Drosophila S2 Gal4-RORgamma UAS-luciferase reporter, 20 h; series mostly up to 53.6 µM
- From the text: NIH Molecular Libraries Probe Production Network [MLPCN] NIH Chemical Genomics Center [NCGC] […] Small molecule inhibitors of ROR gamma activity are detected by a decrease in luciferase reporter activity. […]
Out of some 310,000 compounds screened, about 17,000 (5.5%) were called active. Roughly 11% stayed inconclusive and do not appear here. Calls follow the shape of the dose curve; as a rule, active = well fitted inhibition curve with a large enough effect; inconclusive = small, poorly fitted or top-dose-only effect, or effect the other way; inactive = no such curve, though single readings can be large or run the other way. Many of the other results were omitted from the sample, so actives are more common in it than they were.
Classes used: true (1) = active, false (0) = inactive

Compound | Qualitative label
Cc1ccc(N(C(=O)CNC(=O)c2ccco2)C(C(=O)NC2CCCC2)c2ccncc2)cc1 (stereo unspecified) | false (0)
Nc1[nH]c(=S)nc2nc(-c3ccccc3)c(-c3ccccc3)nc12 | true (1)
Nc1ccc(-c2sc(N)nc2-c2ccccc2)cc1 | false (0)
C=CCNC(=S)N/N=C/c1ccc(OCc2ccccc2)cc1 | false (0)
CCOC(=O)C/C(C)=N\Nc1ccc([N+](=O)[O-])cc1[N+](=O)[O-] | false (0)
COc1cc2c(cc1OC)C(C)N(S(=O)(=O)c1cnc(Cl)c(Cl)c1)CC2 (stereo unspecified) | false (0)
Nc1nc(-c2ccccc2)cc(-c2ccccc2)n1 | false (0)
Cn1cc(CCC(=O)NC2CC2)c2ccccc21 | false (0)
CNC(=S)N/N=C/c1ccc(OCc2ccccc2)c(Br)c1 | true (1)
COc1ccc(-c2nnc3n2CCCCC3)cc1 | false (0)
O=C(O)c1cc(S(=O)(=O)NC2CCCc3ccccc32)ccc1O (stereo unspecified) | false (0)

----------
- Study target: Nuclear receptor ROR-gamma (Mus musculus) (UniProt P51450)
- Test protocol: qHTS for inhibitors of ROR gamma transcriptional activity; also: nearly all actives have a fitted effect of over 60% in size; also: potency is read from the fitted curve at half-maximal effect
- Assay setup: Drosophila S2 Gal4-RORgamma UAS-luciferase reporter, 20 h; series mostly up to 53.6 µM
In all, about 310,000 compounds went through this assay and about 17,000 (5.5%) were called active. Not shown: some 11% with an inconclusive outcome. The sample as a whole holds a higher share of actives than the screen did.

Compound | Potency
O=C(NC(=O)c1ccccc1)NC(=O)c1ccccc1 | inactive
Cc1cccc(N2C(=O)c3ccc(C(=O)Nc4cccc(C(=O)O)c4)cc3C2=O)c1 | inactive
O=C(c1cc2cc(Br)cc(Br)c2oc1=O)N1CCOCC1 | inactive
CCOC(=O)C1CCN(C(=O)C2CCCN(S(=O)(=O)c3ccc(OC)c(Cl)c3)C2)CC1 (stereo not given) | inactive
O=C(O)c1ccc2c(c1)C(=O)N(c1ccc(/C=C/C(=O)c3ccccc3)cc1)C2=O | inactive
CC(=O)Nc1ccc(Oc2ccc3c(c2)C(=O)NC3=O)cc1 | inactive
Cc1nnc(NC(=O)CSc2nccn2-c2cccc(C)c2C)s1 | 10 µM (active)
O=C(O)c1ccc2c(c1)C(=O)N(NC(=O)c1ccc(O)cc1)C2=O | 11.2 µM (active)
Cn1c(=O)c(=O)n(C)c2cc(S(=O)(=O)CCC(=O)N3CCCCC3)ccc21 | inactive
CC1CC(=O)Nc2ccccc2N1S(=O)(=O)c1cccs1 (stereo not given) | inactive
